Values compiled from patent US8691817B2.

- Target Entity: human neutrophil elastase (HNE) (Homo sapiens, UniProt P08246)
- Sequence (P08246 30-267): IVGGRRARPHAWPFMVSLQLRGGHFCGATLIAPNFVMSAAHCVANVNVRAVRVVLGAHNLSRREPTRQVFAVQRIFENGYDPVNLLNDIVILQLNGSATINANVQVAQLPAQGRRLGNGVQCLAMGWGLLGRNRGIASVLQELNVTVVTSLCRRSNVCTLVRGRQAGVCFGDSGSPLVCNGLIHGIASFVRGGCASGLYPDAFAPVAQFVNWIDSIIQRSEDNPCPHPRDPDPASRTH
- Protocol Text: In vitro HNE inhibition assay
- Applied Conditions: HNE concentration of 80 pM; substrate MeOSuc-Ala-Ala-Pro-Val-AMC; 37° C., 2 hours
pIC50: −log10 of the molar value.
Endpoint Label: pIC50

Item CC1=C(C#N)[C@@H](c2ccc(C#N)cc2S(=O)(=O)NCC2CCN(C)C2)NC(=O)N1c1cccc(C(F)(F)F)c1 (stereo partly drawn) has what recorded pIC50?
9.15

Item CC1=C(C#N)[C@@H](c2ccc(C#N)cc2S(=O)(=O)N2CCOCC2)NC(=O)N1c1cccc(C(F)(F)F)c1 has what recorded pIC50?
> 9.52

Item CC1=C(C#N)[C@@H](c2ccc(C#N)cc2S(=O)(=O)N(C)C)NC(=O)N1c1cccc(C(F)(F)F)c1 has what recorded pIC50?
> 9.52
